# credit: the supplement of paper PMC6555819

tested on: LXRb:RXRa (NR concentration 270 nM, RXRa partner concentration 90 nM); assay: PBM binding z-score (relative to random genomic background probes); higher = stronger binding; sequences stand for … in GC…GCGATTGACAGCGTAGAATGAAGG
parameter.measured: PBM binding z-score
Give your answer as a number; write no unit.

> print(dat)
                     polymer.sequence   parameter.measured  test.value
1  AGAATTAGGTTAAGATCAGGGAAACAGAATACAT  PBM binding z-score       0.748
2  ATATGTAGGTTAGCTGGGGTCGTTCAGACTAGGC  PBM binding z-score        2.71

As a next step, examine the sequence that follows.
Please give the measured PBM binding z-score for this sequence: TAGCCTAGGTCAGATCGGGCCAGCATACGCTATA
0.386

* * *

test system: LXRa homodimer (NR concentration 270 nM); test: PBM binding z-score (relative to random genomic background probes); higher = stronger binding; sequences stand for … in GC…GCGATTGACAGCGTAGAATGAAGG
Here the recorded PBM binding z-score is given for each entry.
Give your answer as a number; write no unit.

Here is how some sequences turned out for PBM binding z-score.
> print(dat)
                     polymer.sequence  test.value
1  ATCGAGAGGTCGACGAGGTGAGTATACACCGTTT      -0.165
2  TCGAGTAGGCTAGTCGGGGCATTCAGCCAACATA      -0.763

As a next step, examine the sequence that follows.
State its PBM binding z-score on LXRa homodimer (NR concentration 270 nM): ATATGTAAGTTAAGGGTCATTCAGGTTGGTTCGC
3.27

* * *

system: RARg:RXRa (NR concentration 270 nM, RXRa partner concentration 90 nM); test: PBM binding z-score (relative to random genomic background probes); higher = stronger binding; sequences stand for … in GC…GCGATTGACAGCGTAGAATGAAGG
Would you mind labelling by PBM binding z-score? At or over 0.9 is T, under is F.

> print(dat)
                     polymer.sequence  label.class
1  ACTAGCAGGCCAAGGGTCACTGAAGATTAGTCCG            T
2  TCTATTATTTGAAGGGCAACCGACGAGTCCGTTT            F
3  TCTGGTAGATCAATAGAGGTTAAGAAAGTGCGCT            F

Okay, next one:
Does the sequence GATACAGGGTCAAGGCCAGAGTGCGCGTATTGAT have recorded PBM binding z-score that is 0.9 or more?
T

* * *

Here the recorded PBM binding z-score is given for each entry.
system: RARa:RXR (NR concentration 270 nM, RXRa partner concentration 90 nM); assay: PBM binding z-score (relative to random genomic background probes); higher = stronger binding; sequences stand for … in GC…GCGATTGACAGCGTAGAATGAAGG
Give your answer as a number; write no unit.

Here is how some sequences turned out for PBM binding z-score.
> print(dat)
                     polymer.sequence   parameter.measured  test.value
1  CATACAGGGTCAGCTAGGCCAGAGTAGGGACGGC  PBM binding z-score        2.74
2  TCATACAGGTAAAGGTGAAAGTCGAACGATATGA  PBM binding z-score        1.82

State its PBM binding z-score on RARa:RXR (NR concentration 270 nM, RXRa partner concentration 90 nM): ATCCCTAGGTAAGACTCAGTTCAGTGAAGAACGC
0.256
